Values compiled from ChEMBL document CHEMBL2073850.

target: UniProt Q8TCC7; experiment: TP_TRANSPORTER: inhibition of ES uptake (ES: 0.05 uM, PGF2alpha: 30 uM) in OAT3-expressing S2 cells; type: functional, cell-based; parameters: scale not given: the % may be the effect or the level left; conditions: probe ES, read-out: Activity
Sequence (Q8TCC7 whole entry): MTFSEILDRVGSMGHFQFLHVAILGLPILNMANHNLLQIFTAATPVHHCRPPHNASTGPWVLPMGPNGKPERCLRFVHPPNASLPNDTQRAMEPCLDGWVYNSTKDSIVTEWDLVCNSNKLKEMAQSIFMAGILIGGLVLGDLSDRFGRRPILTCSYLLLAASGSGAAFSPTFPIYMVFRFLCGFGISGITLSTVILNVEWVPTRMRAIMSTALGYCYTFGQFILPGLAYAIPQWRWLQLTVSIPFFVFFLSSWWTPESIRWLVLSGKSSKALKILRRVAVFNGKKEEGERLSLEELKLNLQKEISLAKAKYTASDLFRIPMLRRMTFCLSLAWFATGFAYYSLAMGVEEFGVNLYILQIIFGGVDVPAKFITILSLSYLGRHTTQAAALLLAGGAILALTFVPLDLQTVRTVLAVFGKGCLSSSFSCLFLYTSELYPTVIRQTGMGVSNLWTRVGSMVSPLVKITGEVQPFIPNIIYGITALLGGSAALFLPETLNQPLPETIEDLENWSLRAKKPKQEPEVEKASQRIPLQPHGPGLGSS
Attribute Measured: activity at 30 µM (%)
Reply numerically in %, unit not repeated.

Query: Data request, read-out activity at 30 µM, for CCCCC[C@H](O)/C=C/[C@@H]1[C@@H](C/C=C\CCCC(=O)O)[C@@H](O)C[C@H]1O [DINOPROST]
Result: 26.8

* * *

molecular target: UniProtKB Q4U2R8; test: TP_TRANSPORTER: inhibition of PAH uptake (PAH: 5 uM, PGF2alpha: 1000 uM) in OAT1-expressing S2 cells; type: functional, cell-based; set-up: scale not given: the % may be the effect or the level left; conditions: mouse, probe PAH, read-out: Activity
Sequence (Q4U2R8 whole entry): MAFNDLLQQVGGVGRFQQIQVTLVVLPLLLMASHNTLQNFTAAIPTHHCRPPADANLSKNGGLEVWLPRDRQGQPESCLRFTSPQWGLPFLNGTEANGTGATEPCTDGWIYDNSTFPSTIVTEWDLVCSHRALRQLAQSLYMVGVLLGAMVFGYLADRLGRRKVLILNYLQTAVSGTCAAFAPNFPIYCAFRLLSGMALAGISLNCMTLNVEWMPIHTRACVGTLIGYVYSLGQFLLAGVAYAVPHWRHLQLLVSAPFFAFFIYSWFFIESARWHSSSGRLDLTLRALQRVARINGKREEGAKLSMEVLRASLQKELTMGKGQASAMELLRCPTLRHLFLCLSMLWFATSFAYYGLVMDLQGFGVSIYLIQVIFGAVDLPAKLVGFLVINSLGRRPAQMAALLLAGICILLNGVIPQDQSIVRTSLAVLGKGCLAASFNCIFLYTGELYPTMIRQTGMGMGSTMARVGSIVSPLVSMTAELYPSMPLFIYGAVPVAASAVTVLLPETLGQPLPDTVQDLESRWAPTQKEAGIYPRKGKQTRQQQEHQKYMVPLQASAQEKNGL
Attribute Measured: activity at 1000 µM (%)
Answer in %, number only, no unit symbol.

Query: Value lookup for activity at 1000 µM; key = CCCCC[C@H](O)/C=C/[C@@H]1[C@@H](C/C=C\CCCC(=O)O)[C@@H](O)C[C@H]1O
Result: 17.7

* * *

molecular target: OAT4 (Solute carrier family 22 member 11) (Homo sapiens); assay: TP_TRANSPORTER: inhibition of ES uptake (ES: 0.05 uM, PGF2alpha: 30 uM) in OAT4-expressing S2 cells; type: functional, cell-based; set-up: scale not given: the % may be the effect or the level left; conditions: mouse, probe ES, read-out: Activity
Sequence (Q9NSA0 whole entry): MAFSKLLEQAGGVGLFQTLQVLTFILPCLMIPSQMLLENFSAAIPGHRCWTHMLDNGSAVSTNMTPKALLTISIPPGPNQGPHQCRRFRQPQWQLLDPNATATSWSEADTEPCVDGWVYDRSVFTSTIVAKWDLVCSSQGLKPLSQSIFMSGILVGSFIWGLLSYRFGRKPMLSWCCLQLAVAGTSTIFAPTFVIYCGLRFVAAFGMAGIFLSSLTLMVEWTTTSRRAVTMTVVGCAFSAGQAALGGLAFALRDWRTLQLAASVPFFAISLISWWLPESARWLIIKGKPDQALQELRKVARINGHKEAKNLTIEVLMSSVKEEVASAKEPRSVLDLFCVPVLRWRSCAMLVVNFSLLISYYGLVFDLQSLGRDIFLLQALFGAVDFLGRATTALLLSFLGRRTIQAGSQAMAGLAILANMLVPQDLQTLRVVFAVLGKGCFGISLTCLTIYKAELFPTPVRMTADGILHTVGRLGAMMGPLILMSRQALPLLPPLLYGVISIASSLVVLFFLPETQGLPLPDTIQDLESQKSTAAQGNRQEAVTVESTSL
Attribute Measured: activity at 30 µM (%)
Report as a plain number; the unit % is understood.

Query: Please give the measured activity at 30 µM for this compound: CCCCC[C@H](O)/C=C/[C@@H]1[C@@H](C/C=C\CCCC(=O)O)[C@@H](O)C[C@H]1O [DINOPROST]
Result: 40.8

* * *

Target: OCT2 (Solute carrier family 22 member 2) (Homo sapiens)
Sequence (O15244 whole entry): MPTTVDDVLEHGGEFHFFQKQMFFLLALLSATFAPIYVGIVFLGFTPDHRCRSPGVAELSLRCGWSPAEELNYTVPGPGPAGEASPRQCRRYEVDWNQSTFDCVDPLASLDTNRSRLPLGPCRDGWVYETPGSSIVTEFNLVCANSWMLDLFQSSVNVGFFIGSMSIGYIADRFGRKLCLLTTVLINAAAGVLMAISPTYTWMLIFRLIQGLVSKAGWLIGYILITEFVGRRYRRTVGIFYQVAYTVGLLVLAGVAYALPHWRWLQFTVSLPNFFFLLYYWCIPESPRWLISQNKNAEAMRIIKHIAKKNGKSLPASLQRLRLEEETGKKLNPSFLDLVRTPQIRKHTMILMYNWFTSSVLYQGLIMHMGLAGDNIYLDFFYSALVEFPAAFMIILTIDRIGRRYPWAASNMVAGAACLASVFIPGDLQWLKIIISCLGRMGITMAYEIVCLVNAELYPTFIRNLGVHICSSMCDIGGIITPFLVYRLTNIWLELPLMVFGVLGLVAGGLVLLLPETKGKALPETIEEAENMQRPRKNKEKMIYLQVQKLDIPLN
Experiment: TP_TRANSPORTER: inhibition of TEA uptake (TEA: 5 uM, PGF2alpha: 1000 uM) in OCT2-expressing S2 cells
Format: functional, cell-based
Parameters: scale not given: the % may be the effect or the level left
Conditions: mouse, probe TEA, read-out: Activity
Attribute Measured: activity at 1000 µM
# output: numeric value plus its unit

Query: Form field: activity at 1000 µM recorded for CCCCC[C@H](O)/C=C/[C@@H]1[C@@H](C/C=C\CCCC(=O)O)[C@@H](O)C[C@H]1O [DINOPROST] with OCT2 (Solute carrier family 22 member 2) (Homo sapiens) (enter value)
Result: 70.7%
